Data origin: ChEMBL document CHEMBL1287720

Target: Sialidase-3 (Homo sapiens)
Sequence (Q9UQ49 whole entry): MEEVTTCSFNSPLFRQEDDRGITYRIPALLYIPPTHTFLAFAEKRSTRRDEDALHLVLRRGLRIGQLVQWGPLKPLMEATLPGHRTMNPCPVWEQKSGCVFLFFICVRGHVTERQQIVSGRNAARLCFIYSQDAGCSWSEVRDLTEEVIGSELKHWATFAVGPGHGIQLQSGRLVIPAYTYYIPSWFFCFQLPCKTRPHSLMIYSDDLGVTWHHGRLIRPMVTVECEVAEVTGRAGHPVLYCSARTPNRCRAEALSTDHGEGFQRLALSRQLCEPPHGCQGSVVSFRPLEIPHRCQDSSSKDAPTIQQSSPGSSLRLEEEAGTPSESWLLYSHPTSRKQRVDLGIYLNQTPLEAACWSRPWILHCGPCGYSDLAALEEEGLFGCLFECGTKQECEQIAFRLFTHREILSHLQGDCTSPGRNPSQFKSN
Experiment: Inhibition of human neuraminidase 3 assessed as inhibition of GM3 hydrolysis
pIC50: −log10 of the molar value.
readoutName: pIC50

Asked: Any idea what its pIC50 is? The compound is CCOC(=O)C1=C[C@@H](OC(CC)CC)[C@H](NC(C)=O)[C@@H](N)C1
Given back: < 2.00

----------
Listed here: compounds with reported IC50 for Sialidase-3 (Homo sapiens).
Answers are plain numbers, in µM.

Example compounds with recorded IC50:
CC(=O)N[C@H]1[C@H]([C@H](O)[C@H](O)Cn2cc(-c3ccccc3)nn2)OC(C(=O)O)=C[C@@H]1O    20
CC(=O)N[C@H]1[C@H]([C@H](O)[C@H](O)Cn2cc(CCO)nn2)OC(C(=O)O)=C[C@@H]1O    400
CC(=O)N[C@H]1[C@H]([C@H](O)[C@H](O)CO)OC(C(=O)O)=C[C@@H]1O    48

Asked: Item: CC(=O)N[C@H]1[C@H]([C@H](O)[C@H](O)Cn2cc(CO)nn2)OC(C(=O)O)=C[C@@H]1O Test system: Sialidase-3 (Homo sapiens) Read-out: IC50 Value: ?
Given back: 300
